# STUDY TARGET: NCAM on rat hippocampal neurons (rat, UniProt P13596 20-858)
# Sequence (P13596 20-858): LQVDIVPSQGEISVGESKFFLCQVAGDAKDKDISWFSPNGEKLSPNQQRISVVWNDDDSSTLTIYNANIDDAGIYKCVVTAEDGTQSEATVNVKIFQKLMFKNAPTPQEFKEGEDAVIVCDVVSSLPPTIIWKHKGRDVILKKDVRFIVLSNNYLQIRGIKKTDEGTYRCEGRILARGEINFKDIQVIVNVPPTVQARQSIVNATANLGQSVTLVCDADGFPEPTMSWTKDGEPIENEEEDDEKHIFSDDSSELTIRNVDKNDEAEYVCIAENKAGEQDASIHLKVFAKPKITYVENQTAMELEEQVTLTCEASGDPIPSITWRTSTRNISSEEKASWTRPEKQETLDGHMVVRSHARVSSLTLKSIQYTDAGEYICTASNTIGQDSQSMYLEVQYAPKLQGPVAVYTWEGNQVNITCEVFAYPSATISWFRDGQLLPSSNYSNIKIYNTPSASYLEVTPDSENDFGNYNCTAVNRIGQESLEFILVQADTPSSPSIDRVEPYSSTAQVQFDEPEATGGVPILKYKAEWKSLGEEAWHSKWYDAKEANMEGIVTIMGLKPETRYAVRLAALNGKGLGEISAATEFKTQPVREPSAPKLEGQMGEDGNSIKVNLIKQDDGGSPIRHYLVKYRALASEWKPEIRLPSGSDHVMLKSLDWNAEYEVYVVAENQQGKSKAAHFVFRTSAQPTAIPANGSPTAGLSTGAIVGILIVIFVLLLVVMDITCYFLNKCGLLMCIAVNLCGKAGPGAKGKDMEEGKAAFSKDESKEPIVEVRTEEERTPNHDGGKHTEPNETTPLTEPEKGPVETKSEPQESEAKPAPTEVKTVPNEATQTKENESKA
# EXPERIMENT NOTES: cell-based or functional assay
Ends that are not written are not given here.
READOUT NAME: Neuritogenic effect, 3 µM NPY fragment (% of control)

These recorded examples may help you get a feel for the data.
ALRHYINLITRQRA (ends and bridges not checked) [NPY23-36 ala36]	91.7 % of control
LRHYINLITRQR [NPY24-35]	103 % of control
RHYINLITRQRY-NH2 [NPY25-36]	96.1 % of control

Consider the additional binder presented here.
// query Neuritogenic effect, 3 µM NPY fragment (% of control) value for entry SALRHYINLITRQR [NPY22-35]
91.4 % of control
